# system-tested: human SGLT1 (Homo sapiens (Human), UniProt P13866)
# Sequence (P13866 whole entry): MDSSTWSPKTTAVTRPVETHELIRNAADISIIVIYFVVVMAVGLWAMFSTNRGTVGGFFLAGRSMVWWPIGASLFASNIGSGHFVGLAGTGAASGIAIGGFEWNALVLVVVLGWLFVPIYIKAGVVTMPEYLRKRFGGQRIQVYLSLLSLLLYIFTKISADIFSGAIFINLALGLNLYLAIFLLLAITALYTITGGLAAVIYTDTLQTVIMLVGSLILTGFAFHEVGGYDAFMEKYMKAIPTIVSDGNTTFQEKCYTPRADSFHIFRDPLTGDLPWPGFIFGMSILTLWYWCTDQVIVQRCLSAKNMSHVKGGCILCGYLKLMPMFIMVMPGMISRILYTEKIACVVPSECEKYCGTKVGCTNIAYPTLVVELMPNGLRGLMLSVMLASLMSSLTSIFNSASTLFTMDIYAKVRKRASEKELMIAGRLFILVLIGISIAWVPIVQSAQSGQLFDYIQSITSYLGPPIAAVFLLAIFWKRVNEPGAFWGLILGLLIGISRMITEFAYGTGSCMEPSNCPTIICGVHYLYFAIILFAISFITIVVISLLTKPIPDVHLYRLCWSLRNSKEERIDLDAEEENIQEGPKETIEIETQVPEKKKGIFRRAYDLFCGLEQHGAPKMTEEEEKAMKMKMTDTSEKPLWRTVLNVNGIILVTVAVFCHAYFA
# assay-remarks: SGLT1 inhibitory activity: 14C-AMG uptake into CHO-K1 cell line stably expressing human SGLT1
# Assay type: cell-based
# run-conditions: 14C-AMG uptake, CHO-K1 cells stably expressing human SGLT1
# label = T if IC50 < 10 nM else F

Answered cases to consult:
O=C1C[C@H](C(=O)Nc2cc(-c3cccc(COCC(F)(F)F)c3)n(-c3ccccc3)n2)CN1
F
CCCc1cccc(-c2cc(NC(=O)[C@@H]3CNC(=O)N3CC(F)(F)F)nn2-c2ccccc2)c1
F
C[C@@H](OCc1cc(F)cc(-c2cc(NC(=O)[C@@H]3CNC(=O)C3)nn2-c2ccc(F)cc2)c1)C(F)(F)F
T
CCCc1cccc(-c2cc(NC(=O)[C@@H]3CNC(=O)C3)nn2-c2ccccc2C(C)C)c1
F
O=C1C[C@H](C(=O)Nc2cc(-c3cccc(COCC(F)(F)F)c3)n(-c3cccc(Cl)c3)n2)CN1
F

Q. # strict comparison: is reported IC50 < 10 nM? input = O=C1C[C@H](C(=O)Nc2cc(-c3cccc(OC(F)(F)F)c3)n(-c3ccc(F)cc3)n2)CN1
A. F

Q. # strict comparison: is reported IC50 < 10 nM? input = CCCc1cccc(-c2cc(NC(=O)[C@@H]3CNC(=O)C3)nn2-c2ccc(F)c(OC)c2)c1
A. F

###

# system-tested: human SGLT1 (Homo sapiens (Human))
# assay-remarks: SGLT1 inhibitory activity: 14C-AMG uptake into CHO-K1 cell line stably expressing human SGLT1
# Assay type: cell-based
# run-conditions: 14C-AMG uptake, CHO-K1 cells stably expressing human SGLT1
# label = met if IC50 < 10 nM else not met

Answered cases to consult:
CCCc1cccc(-c2cc(NC(=O)[C@@H]3CNC(=O)C3)nn2-c2cccc(C(C)(C)C)c2)c1
not met
C[C@@H](OCc1cc(F)cc(-c2cc(NC(=O)[C@H]3CNC(=O)N3)nn2-c2ccc(Cl)cc2)c1)C(F)(F)F
met
O=C1C[C@H](C(=O)Nc2cc(-c3cccc(COCC(F)(F)F)c3)n(-c3ccc(Cl)cc3)n2)CN1
not met

Q. # strict comparison: is reported IC50 < 10 nM? input = CCCc1cccc(-c2cc(NC(=O)[C@@H]3CNC(=O)C3)nn2-c2ccc(C(C)C)cc2)c1
A. not met

Q. # strict comparison: is reported IC50 < 10 nM? input = COc1cccc(-n2nc(NC(=O)[C@@H]3CNC(=O)C3)cc2-c2cccc(CO[C@H](C)C(F)(F)F)c2)c1F
A. met

Q. # strict comparison: is reported IC50 < 10 nM? input = O=C1C[C@H](C(=O)Nc2cc(-c3cc(F)cc(COC(C(F)(F)F)C(F)(F)F)c3)n(-c3ccc(F)cc3)n2)CN1
A. not met

Q. # strict comparison: is reported IC50 < 10 nM? input = C[C@@H](OCc1cc(F)cc(-c2cc(NC(=O)[C@@H]3CNC(=O)C3)nn2-c2ccccc2)c1)C(F)(F)F
A. met

Q. # strict comparison: is reported IC50 < 10 nM? input = CCCc1cccc(-c2cc(NC(=O)[C@@H]3CNC(=O)C3)nn2-c2ccc(F)c(OCCO)c2)c1
A. not met

Q. # strict comparison: is reported IC50 < 10 nM? input = CCOc1cc(F)cc(-n2nc(NC(=O)[C@@H]3CNC(=O)C3)cc2-c2cccc(COCC(F)(F)F)c2)c1
A. met

Q. # strict comparison: is reported IC50 < 10 nM? input = CCCOc1ccc(-n2nc(NC(=O)[C@@H]3CNC(=O)C3)cc2-c2cccc(CCC)c2)cc1
A. not met

Q. # strict comparison: is reported IC50 < 10 nM? input = O=C1C[C@H](C(=O)Nc2cc(-c3cc(F)cc(COCC(F)(F)F)c3)n(-c3ccc(Cl)cc3)n2)CN1
A. not met

Q. # strict comparison: is reported IC50 < 10 nM? input = C[C@@H](OCc1cccc(-c2cc(NC(=O)[C@H]3CNC(=O)N3)nn2-c2ccccc2)c1)C(F)(F)F
A. not met

Q. # strict comparison: is reported IC50 < 10 nM? input = CC(C)(C)COc1cccc(-c2cc(NC(=O)[C@@H]3CNC(=O)C3)nn2-c2ccccc2)c1
A. not met

Q. # strict comparison: is reported IC50 < 10 nM? input = CC(C)(OCc1cc(F)cc(-c2cc(NC(=O)[C@H]3CNC(=O)N3)nn2-c2ccc(F)cc2)c1)C(F)(F)F
A. not met
